# System: H460 cells
# measurementDescription: Inhibition of KRas-mediated phosphorylation of ERK (Cisbio HTRF pERK), H460 cells
# Format: cell-based
# condition: Homo sapiens, NCI-H460, single point at 100 nM, 3 hrs compound incubation
Kindly supply the reported inhibition at 0.1 µM values for the records listed here.
Numeric answer only, unit % assumed.

Lookup result for CCc1c(F)ccc2cc(O)cc(N3CCc4c(nc(OC[C@@]56CCCN5C[C@H](F)C6)nc4N4CCCn5nc(C(=O)N6CC7CCC6CC7)cc5C4)C3)c12 ; measured inhibition at 0.1 µM: 59

Measured inhibition at 0.1 µM of CCc1c(F)ccc2cc(O)cc(N3CCc4c(nc(OC[C@@]56CCCN5C[C@H](F)C6)nc4N4CCCn5nc(C(=O)N6CCC7CC6CN7)cc5C4)C3)c12 (some centres unmarked) : 2

// inhibition at 0.1 µM lookup, compound = CCc1c(F)ccc2cc(O)cc(N3CCc4c(nc(OC[C@@]56CCCN5C[C@H](F)C6)nc4N4CCCn5nc(C(=O)N6CC7CCC(C7)C6)cc5C4)C3)c12 , result: 66

Lab note: measured inhibition at 0.1 µM of Cc1c(F)ccc2cc(O)cc(N3CCc4c(nc(OC[C@@]56CCCN5C[C@H](F)C6)nc4N4CCCC5(CNS(=O)(=O)N5)C4)C3)c12 (some centres unmarked) was 79

Recorded inhibition at 0.1 µM (compound CCc1c(F)ccc2cc(O)cc(N3CCc4c(nc(OC[C@@]56CCCN5C[C@H](F)C6)nc4N4CCCn5nc(C(=O)N6C7CCCC6CC7)cc5C4)C3)c12 ): 77

###

# studySystem: KRas G12R (Homo sapiens, UniProt P01116, G12R)
# Sequence (P01116 1-169 isoform P01116-2 G12R): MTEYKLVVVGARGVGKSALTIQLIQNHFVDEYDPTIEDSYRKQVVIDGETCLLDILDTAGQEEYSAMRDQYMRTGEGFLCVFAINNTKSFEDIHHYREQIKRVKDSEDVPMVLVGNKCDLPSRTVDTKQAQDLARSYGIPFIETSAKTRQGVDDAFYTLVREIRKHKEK
# measurementDescription: biochemical
# condition: Binding to KRas (IC50 nM) G12R, TR-FRET displacement, KRas G12R
endpoint: IC50 (nM)
Record the value in nM, omitting the unit from your answer.

For record Cc1cc2[nH]ncc2c(N2CCc3c(nc(OCC45CCCN4CCC5)nc3N3CC4CC(O)C(C4)C3)C2)c1C (stereo not shown) the listed IC50 is 692

Value of measured IC50 for the entry CCc1c(F)ccc2cc(O)cc(N3CCc4c(nc(OC[C@@]56CCCN5C[C@H](F)C6)nc4N4CCOCC(P(C)(C)=O)C4)C3)c12 (stereo partly shown) : 11

The reported IC50 of the molecule CCc1c(F)ccc2cc(O)cc(N3CCc4c(nc(OC[C@@]56CCCN5C[C@H](F)C6)nc4N4CCCN(CC(F)(F)F)CC4)C3)c12 was 34

IC50 for CCc1c(F)ccc2cc(O)cc(N3CCc4c(nc(OC[C@@]56CCCN5C[C@H](F)C6)nc4N4CCCC5(CSC5)C4)C3)c12 is 3

IC50 for CCc1c(F)ccc2cc(O)cc(N3CCc4c(nc(OC[C@@]56CCCN5C[C@H](F)C6)nc4N4Cc5cn(C(=O)N(C)C)nc5CC(C)(C)C4)C3)c12 is 9

For this molecule ( CCc1c(F)ccc2cc(O)cc(N3CCc4c(nc(OC[C@@]56CCCN5C[C@H](F)C6)nc4N4CCCn5nc(C(=O)N6CC7CNC(C7)C6)cc5C4)C3)c12 (stereo partly shown) ), measured IC50 is 4

Entry Cc1cc2[nH]ncc2c(N2CCc3c(nc(OCC45CCCN4CCC5)nc3N3CCOCC(C)(O)C3)C2)c1C (stereo not shown) ; IC50 = 216

Record summary for Cc1cc2[nH]ncc2c(N2CCc3c(nc(OCC45CCCN4CCC5)nc3N3CCCC4(CC(=O)N4)C3)C2)c1C (stereo not shown) : reported IC50 = 17
